molecular target: Chromo domain-containing protein 1 (Saccharomyces cerevisiae (strain ATCC 204508 / S288c) (Baker's yeast)) (UniProt P32657); assay: ScCHD-1 Enzyme Inhibition Assay; type: functional; parameters: scale not given: in the data most compounds retested in dose-response had high values; settings: 30 µM
Sequence (P32657 whole entry, the tested form may be a part): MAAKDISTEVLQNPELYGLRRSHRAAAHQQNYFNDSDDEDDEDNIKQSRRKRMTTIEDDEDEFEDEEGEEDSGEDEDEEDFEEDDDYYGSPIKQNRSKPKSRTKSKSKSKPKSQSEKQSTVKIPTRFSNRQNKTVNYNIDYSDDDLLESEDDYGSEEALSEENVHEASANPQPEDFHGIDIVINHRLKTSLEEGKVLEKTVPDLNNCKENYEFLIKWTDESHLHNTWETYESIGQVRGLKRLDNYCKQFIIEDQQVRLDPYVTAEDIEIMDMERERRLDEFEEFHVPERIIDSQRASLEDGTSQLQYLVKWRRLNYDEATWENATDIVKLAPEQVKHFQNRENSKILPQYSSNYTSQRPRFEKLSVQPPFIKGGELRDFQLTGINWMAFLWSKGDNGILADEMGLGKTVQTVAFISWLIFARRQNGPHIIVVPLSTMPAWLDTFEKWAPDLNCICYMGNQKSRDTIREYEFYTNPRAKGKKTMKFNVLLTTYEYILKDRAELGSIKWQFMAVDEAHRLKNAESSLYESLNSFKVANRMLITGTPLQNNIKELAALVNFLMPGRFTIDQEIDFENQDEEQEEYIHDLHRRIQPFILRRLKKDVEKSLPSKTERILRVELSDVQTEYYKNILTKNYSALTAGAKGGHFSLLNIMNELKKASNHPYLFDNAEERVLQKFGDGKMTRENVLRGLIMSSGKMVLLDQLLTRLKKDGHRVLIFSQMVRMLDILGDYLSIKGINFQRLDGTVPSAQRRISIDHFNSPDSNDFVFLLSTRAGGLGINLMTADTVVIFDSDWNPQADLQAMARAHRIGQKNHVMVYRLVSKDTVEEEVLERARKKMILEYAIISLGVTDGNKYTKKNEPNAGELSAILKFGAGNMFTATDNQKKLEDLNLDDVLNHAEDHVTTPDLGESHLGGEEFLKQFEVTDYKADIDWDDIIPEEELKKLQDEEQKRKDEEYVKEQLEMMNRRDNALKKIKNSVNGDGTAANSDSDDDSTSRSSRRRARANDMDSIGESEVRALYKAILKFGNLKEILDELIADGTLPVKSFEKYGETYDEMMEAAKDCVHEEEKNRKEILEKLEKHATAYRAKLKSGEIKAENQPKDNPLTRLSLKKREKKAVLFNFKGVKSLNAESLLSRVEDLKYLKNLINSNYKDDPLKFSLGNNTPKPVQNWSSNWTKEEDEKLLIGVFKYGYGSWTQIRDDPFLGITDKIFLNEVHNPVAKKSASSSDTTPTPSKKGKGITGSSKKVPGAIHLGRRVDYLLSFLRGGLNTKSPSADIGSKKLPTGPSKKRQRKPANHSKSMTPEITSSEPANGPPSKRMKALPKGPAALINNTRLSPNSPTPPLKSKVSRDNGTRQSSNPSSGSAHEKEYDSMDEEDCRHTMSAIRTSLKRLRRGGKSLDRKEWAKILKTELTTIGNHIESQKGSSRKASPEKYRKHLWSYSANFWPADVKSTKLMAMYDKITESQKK
assay-endpoint: Percent Effect (%)
Return type: number; implicit unit %.

O=C(CCc1cc2n(n1)CCCN(C(=O)c1ccccn1)C2)NC1CC1 : -4.34
Cc1noc([C@H]2CC[C@@H]3[C@@H](CCN3S(C)(=O)=O)O2)n1 : -2.42
CCn1ncc(CN2CCc3c(nc(-c4cccnc4)[nH]c3=O)C2)c1C : -4.43

**Query** Could you share which Percent Effect value was measured for Cc1ccc(C(C)NC(=O)Cc2c(C)nc3c(c2C)c(=O)[nH]n3C)o1 (centres undefined) ?
**Result** 1.13

**Query** Also need Cc1cc(C)n(CC2CN(Cc3nnsc3Cl)CCO2)n1 (centres undefined) , thanks.
**Result** -7.75

**Query** Also need `CCn1nc(CC(C)C)cc1C(=O)N1C[C@H](O)[C@@H](N2CCCCC2)C1` , thanks.
**Result** -6.08

**Query** Also need `Cn1c(Cn2ccnc2)nnc1C1CCN(Cc2cccnc2N)CC1` , thanks.
**Result** -3.65

**Query** Also need `CCc1nc(NCC(=O)N2CCOCC2)c2c(n1)c(C)nn2CC` , thanks.
**Result** -5.78

**Query** Also need CNc1cc(N2CCCC2CNCc2ccccn2)ncn1 (centres undefined) , thanks.
**Result** 26.6

**Query** Also need CCc1ncc(C(=O)N2CCCCC2Cn2cccn2)s1 (centres undefined) , thanks.
**Result** 10.1

**Query** Also need `O=C(CCNc1ncccn1)NCCc1ccn(-c2ccccc2)n1` , thanks.
**Result** -24.6

**Query** Also need `Cc1ccoc1C(=O)N1CCO[C@H]2[C@H](OCCN(C)C)CC[C@@H]21` , thanks.
**Result** -3.32
